Origin of values: patent US3979511A

Biological target: reverse transcriptase of Rous sarcoma virus (Rous sarcoma virus - Prague C, UniProt P03354)
Construct: alpha/beta heterodimer cut from Gag-Pol polyprotein; 3H-TTP incorporation
Sequence (P03354 709-1567): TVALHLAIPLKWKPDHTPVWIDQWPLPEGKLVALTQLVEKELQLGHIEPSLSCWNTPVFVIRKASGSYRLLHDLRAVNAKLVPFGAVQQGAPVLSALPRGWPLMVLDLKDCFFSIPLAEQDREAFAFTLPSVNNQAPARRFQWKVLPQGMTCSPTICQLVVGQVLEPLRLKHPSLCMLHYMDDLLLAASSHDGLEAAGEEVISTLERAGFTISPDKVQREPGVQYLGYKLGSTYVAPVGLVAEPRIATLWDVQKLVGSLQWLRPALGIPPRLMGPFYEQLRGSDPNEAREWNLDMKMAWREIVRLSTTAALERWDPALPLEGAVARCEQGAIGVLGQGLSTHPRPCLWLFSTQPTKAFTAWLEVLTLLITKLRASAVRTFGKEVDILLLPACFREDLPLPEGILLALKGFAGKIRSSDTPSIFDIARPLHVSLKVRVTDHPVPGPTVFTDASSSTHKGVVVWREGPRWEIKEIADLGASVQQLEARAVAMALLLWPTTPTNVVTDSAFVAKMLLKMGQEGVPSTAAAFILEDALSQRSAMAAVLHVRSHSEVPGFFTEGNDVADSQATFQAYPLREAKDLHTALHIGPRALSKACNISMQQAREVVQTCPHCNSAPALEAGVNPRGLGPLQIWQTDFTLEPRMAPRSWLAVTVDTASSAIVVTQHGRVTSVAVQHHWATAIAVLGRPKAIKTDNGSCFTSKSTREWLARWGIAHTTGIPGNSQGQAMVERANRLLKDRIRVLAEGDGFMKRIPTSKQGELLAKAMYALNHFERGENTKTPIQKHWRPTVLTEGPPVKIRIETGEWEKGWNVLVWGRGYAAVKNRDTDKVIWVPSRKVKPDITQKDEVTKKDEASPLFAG
Assay: Inhibition of reverse transcriptase activity in RSV particles (3H-thymidine triphosphate incorporation)
Type: biochemical
Conditions: 400 μg/ml.; read-out: Percent Inhibition
QUANTITY: inhibition at 400 µg/mL (%)

INPUT_SMILES	MEASUREMENT_UNITS	inhibition at 400 µg/mL
CCCON=C1[C@H](C)C[C@@](C)(O)[C@H](O[C@@H]2O[C@H](C)C[C@H](N(C)C)[C@H]2O)[C@@H](C)[C@H](O[C@H]2C[C@@](C)(OC)[C@@H](O)[C@H](C)O2)[C@@H](C)C(=O)O[C@H](CC)[C@@](C)(O)[C@H](O)[C@H]1C	%	47
CC[C@H]1OC(=O)[C@H](C)[C@@H](O[C@H]2C[C@@](C)(OC)[C@@H](O)[C@H](C)O2)[C@H](C)[C@@H](O[C@@H]2O[C@H](C)C[C@H](N(C)C)[C@H]2O)[C@](C)(O)C[C@@H](C)C(=NOCc2ccc(Cl)c(Cl)c2)[C@H](C)[C@@H](O)[C@H]1C	%	69
CCON=C1[C@H](C)C[C@@](C)(O)[C@H](O[C@@H]2O[C@H](C)C[C@H](N(C)C)[C@H]2O)[C@@H](C)[C@H](O[C@H]2C[C@@](C)(OC)[C@@H](O)[C@H](C)O2)[C@@H](C)C(=O)O[C@H](CC)[C@@](C)(O)[C@H](O)[C@H]1C	%	52
CC[C@H]1OC(=O)[C@H](C)[C@@H](O[C@H]2C[C@@](C)(OC)[C@@H](O)[C@H](C)O2)[C@H](C)[C@@H](O[C@@H]2O[C@H](C)C[C@H](N(C)C)[C@H]2O)[C@](C)(O)C[C@@H](C)C(=NOC)[C@H](C)[C@@H](O)[C@]1(C)O	%	57
